Assay: Phase 1 plasma pharmacokinetics, multiple-ascending dose (MAD) cohorts
Assay type: in vivo, human
Details: MAD 10 mg qd, Day 14; mean ± SD; n = 6
Description: Multiple-ascending dose (MAD) cohorts. The MAD cohorts also used a randomized, double-blind, placebo-controlled, sequential design. Pharmacokinetic analyses. For all study groups, blood samples for PK assessment were obtained pre-dose, up to 12 times daily on day 1, and then at regular intervals throughout the study. […]
Property label: CLss/F (L/h)
Unit L/h implied. Number only.

Query: Dear colleague, I am looking for the recorded CLss/F of the following compound: CCc1nc(-c2ccc3c(c2)CC[C@H]3NC(=O)c2cnn(C)c2)no1
Reply: 3.9
